The following binders are shown together with reported % inhibition formation SNARE complex values.
# TARGET UNDER TEST: SNARE complex (VAMP, syntaxin and SNAP-25) (UniProt P60880)
# Sequence (P60880 whole entry, one chain of several): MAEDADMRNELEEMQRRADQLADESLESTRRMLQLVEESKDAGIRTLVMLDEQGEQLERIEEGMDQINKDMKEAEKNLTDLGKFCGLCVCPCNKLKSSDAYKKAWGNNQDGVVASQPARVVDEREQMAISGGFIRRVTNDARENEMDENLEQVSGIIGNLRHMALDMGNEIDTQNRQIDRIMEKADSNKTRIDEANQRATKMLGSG
# PROCEDURE DETAILS: SDS-PAGE of SNARE complex: VAMP + syntaxin + compound, then SNAP-25; image analysis; compound at 5 mM
Non-standard residues stand in square brackets, D forms with d. *: point of attachment. Met(O2) = CS(=O)(=O)CC[C@H](N)C(=O)O; Palmitoyl = CCCCCCCCCCCCCCCC(=O)*; NHhexadecyl = CCCCCCCCCCCCCCCCN*; Myristoyl = CCCCCCCCCCCCCC(=O)*

# BINDER, UNIT TAG, % inhibition formation SNARE complex
records = [
    ("Ac-QDFLHWM-NH2 [Ac-SEQ ID NO:2-NH2]", "%", 80),
    ("Myristoyl-NHFLNWM-NH2 [Myr-SEQ ID NO:15-NH2]", "%", 76),
    ("Ac-DHFLDWM-NH2 [Ac-SEQ ID NO:25-NH2]", "%", 100),
    ("Ac-NHFLNWM-NH2 [Ac-SEQ ID NO:15-NH2]", "%", 100),
    ("Palmitoyl-NHFLNWM-NH2 [Palm-SEQ ID NO:15-NH2]", "%", 74),
    ("Ac-DHFLNWM-NH2 [Ac-SEQ ID NO:34-NH2]", "%", 59),
    ("Ac-EDLKRWM-NHhexadecyl [Ac-SEQ ID NO:14-NH-(CH2)15-CH3]", "%", 85),
    ("Palmitoyl-EHLKQWM-NH2 [Palm-SEQ ID NO:1-NH2]", "%", 72),
    ("Palmitoyl-DHFLDWM-NH2 [Palm-SEQ ID NO:25-NH2]", "%", 85),
    ("Ac-DHFLDW[Met(O2)]-NH2 [Ac-SEQ ID NO:61-NH2]", "%", 89),
    ("Ac-EDLKRWM-NH2 [Ac-SEQ ID NO:14-NH2]", "%", 100),
]
